Test system: TEC
Conditions: concentration: 1 μM, replicates: in singlicate; n = 1;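 note: KINOMEscan kinase panel screen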
QUANTITY NAME: %Inh (%)

INSERT INTO assay_data (molecule, unit, experimental_value) VALUES
  ('O=C(NCCCN1CCOCC1)c1cccc(Nc2nccc(Nc3ccc(Oc4ccccc4)cc3)n2)c1', '%', 70),
  ('COc1cc(Nc2nccc(N3CCC(NC(=O)c4cccc(NC(C)=O)c4)C3)n2)cc(OC)c1OC (centres unmarked)', '%', 0),
  ('O=c1cc(N2CCOCC2)nc2n(Cc3cccc4ccccc34)ccn12', '%', 0),
  ('COc1cc2c(cc1OC[C@@H](O)CO)ncc1c3ccc(C#N)cc3[nH]c21', '%', 0),
  ('c1ccc(-c2cc(-c3c[nH]nc3-c3ccccn3)ccn2)cc1', '%', 0);

---

System: SIK2
Conditions: concentration: 1 μM, replicates: in singlicate; n = 1
We begin with a simple list: items and their reported %Inh.
QUANTITY NAME: %Inh (%)

INSERT INTO assay_data (compound, unit, experimental_value) VALUES
  ('Cc1cn2c(=O)cc(N3CCOCC3)nc2n1Cc1cccc(Cl)c1Cl', '%', 3),
  ('CCc1nc(-c2cccc(C)c2)c(-c2ccnc(NCc3ccccc3)c2)s1', '%', 10),
  ('CC(C)Oc1ccc2c(-c3ccnc(Nc4ccc(N5CCN(C)CC5)cc4)n3)cnn2n1', '%', 83),
  ('COc1ccc(CNC(=O)NC2CCN(c3ccnc(Nc4ccc(OC)cc4)n3)C2)cc1 (centres unmarked)', '%', 0),
  ('NCC(NC(=O)c1cc(-c2cn[nH]c2)c(-c2ccnc3[nH]ccc23)s1)c1ccccc1.O=C(O)C(F)(F)F.O=C(O)C(F)(F)F (centres unmarked)', '%', 0),
  ('COc1ccc(Nc2nccc(N3CCC(NC(=O)Nc4cc(C)ccc4C)C3)n2)cc1 (centres unmarked)', '%', 0),
  ('O=C(Nc1cccc(-c2nn3ncccc3c2-c2ccnc(Nc3cccc(C(F)(F)F)c3)n2)c1)c1c(F)cccc1F', '%', 0),
  ('CNc1ncnc2[nH]ncc12', '%', 0),
  ('c1ccc(-c2cc(-c3c[nH]nc3-c3ccccn3)ccn2)cc1', '%', 0),
  ('Cc1cccc(Cn2ccn3c(=O)cc(N4CCOCC4)nc23)c1', '%', 0),
  ('CSc1ccc(-c2cc3ncnc(SCC(=O)O)c3s2)cc1', '%', 0),
  ('Cc1nnc(-c2ccc(C)c(-c3ccc(C(=O)Nc4ccc(NS(C)(=O)=O)cc4)cc3)c2)o1', '%', 0),
  ('CN(C(=O)c1ccc(-c2cc(-c3c[nH]nc3-c3ccccn3)ccn2)cc1)C1CCOCC1', '%', 0),
  ('CN1c2ccc(CNc3ccc(F)cc3)cc2-c2c(cnn2C)S1(=O)=O', '%', 0);

---

// reported %Inh for each item listed
Tested on: CDC2L2
Settings: concentration: 1 μM, replicates: in singlicate; n = 1
QUANTITY NAME: %Inh

INSERT INTO assay_data (compound, quantity_name, experimental_value) VALUES
  ('NS(=O)(=O)CCc1cccc(Nc2nccc(-c3c(-c4cccc(NC(=O)c5c(F)cccc5F)c4)nn4ccccc34)n2)c1', '%Inh', '35%'),
  ('Cc1c2ccc(N(C)c3ccnc(Nc4cccc(S(N)(=O)=O)c4)n3)cc2nn1Cc1ccccc1.Cl.Cl', '%Inh', '76%'),
  ('O=c1cc(N2CCOCC2)nc2n(Cc3cccc(F)c3)ccn12', '%Inh', '6%'),
  ('O=C(Nc1cccc(-c2nn3ncccc3c2-c2ccnc(Nc3cccc(C(F)(F)F)c3)n2)c1)c1c(F)cccc1F', '%Inh', '19%'),
  ('Cc1ccc(NC(=O)c2ccnc(N3CCN(C)CC3)c2)cc1-c1ccc(C(=O)NCC2CC2)cc1', '%Inh', '0%'),
  ('Cc1c(Cn2c(C)nn3c(=O)cc(N4CCOC(C)C4)nc23)cccc1C(F)(F)F (centres unmarked)', '%Inh', '0%'),
  ('CN1c2ccc(CNc3ccc(F)cc3)cc2-c2c(cnn2C)S1(=O)=O', '%Inh', '0%'),
  ('CCCCCc1nc2c(N)ncnc2n1CCCCC', '%Inh', '0%'),
  ('CCn1cnc2c(N)ncnc21', '%Inh', '6%'),
  ('COc1ccc(Nc2ncc(C#N)c(Nc3ccccc3C(N)=O)n2)cc1N1CCN(C)CC1.Cl', '%Inh', '1%'),
  ('O=c1cc(N2CCOCC2)nc2n(Cc3cccc4ccccc34)ccn12', '%Inh', '0%'),
  ('c1ccc(-c2cc(-c3c[nH]nc3-c3ccccn3)ccn2)cc1', '%Inh', '16%'),
  ('Nc1nc(-c2ccc3c(N)n[nH]c3c2)cc(N2CCCC2)n1', '%Inh', '14%'),
  ('Cc1cccc(-c2nc(Nc3ccc4ncsc4c3)c3ccccc3n2)n1', '%Inh', '13%');
